- TEST_DETAILS: pKa of GLP1RA
- Type: physicochemical
- SETUP_CONDITIONS: weak acid
MEASUREMENT_LABEL: pKa

- COMPOUND: "Cc1cc(-n2nc3c(c2-n2ccn(-c4ccc5c(cnn5C)c4F)c2=O)[C@H](C)N(C(=O)c2cc4cc([C@H]5CCOC(C)(C)C5)ccc4n2[C@@]2(c4noc(=O)[nH]4)C[C@@H]2C)CC3)cc(C)c1F [GLP1RA]"
  ASSAY_RESULT: 5.1

These measurements were taken from patent US20250302809A1.
